protocol text: In Vivo PK (Mouse)
assay context: male, CD1, mouse, in vivo, intravenous, 3 mpk
readout type: clearance (mL/min/kg)
Give bare numbers, in mL/min/kg.

Prompt: Reported clearance, compound `COc1cccc(CNc2ccc(S(=O)(=O)Nc3nc4ccccc4s3)cc2)c1O` : ____
Response: 3.4

====

protocol text: In Vivo PK (Mouse)
assay context: male, CD1, mouse, in vivo, iv, 3 mg/kg
readout type: half-life (h)
Give bare numbers, in h.

Prompt: Reported half-life, compound `COc1cccc(CNc2ccc(S(=O)(=O)Nc3nc4ccccc4s3)cc2)c1O` : ____
Response: 3.4

====

protocol text: In Vivo PK (Mouse)
assay context: male, CD1, mouse, in vivo, po, 30 mg/kg
readout type: Cmax (µM)
Answers are plain numbers, in µM.

Prompt: Reported Cmax, compound `COc1cccc(CNc2ccc(S(=O)(=O)Nc3nc4ccccc4s3)cc2)c1O` : ____
Response: 38
